- experiment: qHTS assay to identify small molecule antagonists of the TGF-beta/Smad signaling pathway - cell viability counter screen (AID 1346824); further: nearly all actives have a fitted effect of over 50% in size
- studyConditions: SBE-bla HEK293T viability, CellTiter-Glo luminescence; series mostly up to 76.8 µM
Records with an inconclusive call do not appear. Calls of active or inactive are those of the source. The call rests on the fitted dose curve; in most records, active means well fitted cell-killing curve with a large enough effect in the repeat runs; inconclusive means weak or mixed curves; inactive means flat fitted curve, though single readings scatter.
Can you answer with just one of these options? y (active), n (inactive)

INSERT INTO results (compound, classification) VALUES
  ('N#CCCO', 'n'),
  ('Nc1ccccc1C(=O)OC/C=C/c1ccccc1', 'n'),
  ('COP(=O)(OC)SCn1c(=O)oc2cc(Cl)cnc21', 'n'),
  ('NNC(=O)c1ccccc1', 'n');

Request: Which outcome was assigned to COc1cccc(C(=O)CCN[C@@H](C)[C@H](O)c2ccccc2)c1 in this test?
Response: n

Request: Dear all, I need the recorded test outcome for CN(CCCC(=O)c1cccnc1)N=O , thank you.
Response: n

Request: Tell me the recorded outcome of this test for O=C1c2ccccc2C(=O)C1C(=O)C(c1ccccc1)c1ccc(Cl)cc1 (stereo not given) .
Response: n

Request: Outcome? O=C(CCCN1CCC2(CC1)C(=O)NCN2c1ccccc1)c1ccc(F)cc1
Response: n

Request: Would you mind telling me which call this test gave CCCCCCCCCCCCCCCCCCn1cc[n+](C)c1 ?
Response: y

Request: # fetch the recorded call for ClC1=C(Cl)[C@]2(Cl)[C@@H]3[C@@H](Cl)[C@H](Cl)C[C@@H]3[C@@]1(Cl)C2(Cl)Cl here
Response: n

Request: Tell me the recorded outcome of this test for S=C(SSC(=S)N1CCCCC1)N1CCCCC1 .
Response: n

Request: Assay result, entry O=[N+]([O-])c1c2ccccc2cc2ccccc12 — outcome?
Response: n

Request: Called result for CC(C)OC(=O)C(O)(c1ccc(Cl)cc1)c1ccc(Cl)cc1
Response: n

Request: Just curious, what result did Oc1ccc(C2(c3ccc(O)cc3)c3ccccc3-c3ccccc32)cc1 get here?
Response: n

Request: Returns: the outcome recorded for CC(C)(COCC1CO1)COCC1CO1 (stereo not given) in this assay.
Response: n

Request: Recorded test outcome, item O=C/C(Cl)=C(/Cl)C(=O)O
Response: n

Request: Outcome logged for ClCc1ccccc1CCl in this assay:
Response: n

Request: Per the assay record, what outcome was assigned to BrC(Br)Br ?
Response: n

Request: Which outcome was entered for the compound Cn1[nH]nnc1=S in this test?
Response: n

Request: Identify the outcome logged in this assay for the compound shown: N#Cc1ccccc1N
Response: n

Request: Given CC(=O)C(Cl)(Cl)Cl , state the outcome it received in this test.
Response: n

Request: What call does the record list for CNC(C)Cc1ccc2c(c1)OCO2 (stereo not given) ?
Response: n
